- METHOD_NOTES: RP, Waters ACQUITY UPLC BEH C18, 100 × 1 mm, 1.7 µm, 50 °C, 0.3 mL/min, estimated dead time 0.17 min; A: water + 10 mM ammonium bicarbonate; B: 10% water + 90% methanol + 10 mM ammonium bicarbonate; gradient (min/%B) 0/0 15/100 21/100 22/0 30/0
- STATED_CONDITIONS: stereoisomer not certain
Listing of recorded LC retention time by entry.
Write the value in min as a bare number.

- O=C(O)c1cn(C2CC2)c2cc(N3CCNCC3)c(F)cc2c1=O: 7.67
- NCC(O)COc1ccc(CC(N)=O)cc1 (stereo not given): 5.61
- CC(=O)c1cc2c(cc1C)C(C)(C)C(C)C2(C)C (stereo not given) [Phantolide]: 17.9

Query: Fill in: LC retention time of CCOC(=O)C(CCc1ccccc1)NC(C)C(=O)N1CCCC1C(=O)O (stereo not given) is ___
Response: 12.2

Query: And what about the compound Oc1cccc2ccccc12 ?
Response: 12.7

Query: Again, but for COc1ccc(-c2ccccc2)cc1NNC(=O)OC(C)C [Bifenazate]
Response: 15

Query: Another compound to look at: Clc1ccccn1
Response: 8.38

---

Reported LC retention time values for the following molecules.
- METHOD_NOTES: RP, Phenomenex Synergi Polar-RP, 100 × 3 mm, 2.5 µm, 40 °C, 0.4 mL/min, estimated dead time 1.1 min; A: water + 1 mM ammonium fluoride; B: methanol + 1 mM ammonium fluoride; C: acetonitrile; D: 50% isopropanol + 50% acetone; gradient (min/%B/%C/%D) 0/5/0/0 2/5/0/0 8/95/0/0 12/80/15/0 19/25/70/0 19.5/0/25/70 21.5/0/25/70 22.5/0/25/0 23/5/0/0
- STATED_CONDITIONS: stereoisomer not certain
The figure you give is taken to be in min; do not add the unit.

Worked set:
- Oc1cccc2ccccc12: 10
- O=c1c(-c2ccc(O)cc2)coc2cc(O)ccc12: 9.89
- O=C(NC(=O)c1c(F)cccc1F)Nc1ccc(Oc2ccc(C(F)(F)F)cc2Cl)cc1F: 11.9

Query: # get_value(readout='LC retention time', item= O=C(c1ccc(OCCN2CCCCC2)cc1)c1c(-c2ccc(O)cc2)sc2cc(O)ccc12 )
Response: 16.2

Query: Queued: N#Cc1cc(Br)c(O)c(Br)c1
Response: 8.68

Query: Oc1ccc(Cl)cc1Cc1cc(Cl)ccc1O , same question.
Response: 10.9

Query: O=C(Nc1ccc(Cl)c(Cl)c1)c1cc(Cl)cc(Cl)c1O [Tetrachlorosalicylanilide] , same question.
Response: 10.2

Query: Same lookup for N#Cc1c(O)c(Cl)c(Cl)c(C#N)c1Cl [Chlorothalonil-4-hydroxy] , please.
Response: 9.06

---

- METHOD_NOTES: RP, Phenomenex Synergi Polar-RP, 100 × 3 mm, 2.5 µm, 40 °C, 0.4 mL/min, estimated dead time 1.1 min; A: water + 1 mM ammonium fluoride; B: methanol + 1 mM ammonium fluoride; C: acetonitrile; D: 50% isopropanol + 50% acetone; gradient (min/%B/%C/%D) 0/5/0/0 2/5/0/0 8/95/0/0 12/80/15/0 19/25/70/0 19.5/0/25/70 21.5/0/25/70 22.5/0/25/0 23/5/0/0
- STATED_CONDITIONS: stereoisomer not certain
EXPERIMENTAL_ENDPOINT: LC retention time (min)
Give a bare numeral; the unit min is implied.

Consider the reported LC retention time for these compounds:
• O=c1[nH]c(=O)c2cn[nH]c2[nH]1 = 2.44
• Nc1nc2c(ncn2COCCO)c(=O)[nH]1 = 3.17
• Cc1cc(Cl)ccc1OCC(=O)O = 8.16
• OCC1OC(OC2(CCl)OC(CCl)C(O)C2O)C(O)C(O)C1Cl (centres undefined) = 8
• CC(C)Cc1ccc(C(C)C(=O)O)cc1 (centres undefined) = 10.3
• O=S(=O)(O)c1ccc2nc(-c3ccccc3)[nH]c2c1 = 7.44
• CC(C)C(=O)Nc1ccc([N+](=O)[O-])c(C(F)(F)F)c1 [Flutamide] = 10.7
• CCCOC(=O)c1ccc(O)cc1 = 10.2

Switching to the query record.
Query: Requested read-out: LC retention time. Entry: N#Cc1nn(-c2c(Cl)cc(C(F)(F)F)cc2Cl)c(N)c1S(=O)(=O)C(F)(F)F
Response: 11.1

---

Measured LC retention time of individual entries
- METHOD_NOTES: RP, Waters ACQUITY UPLC BEH C18, 100 × 1 mm, 1.7 µm, 50 °C, 0.3 mL/min, estimated dead time 0.17 min; A: water + 0.1% formic acid + 20 mM ammonium formate; B: methanol + 0.1% formic acid + 20 mM ammonium formate; gradient (min/%B) 0/0 15/100 21/100 22/0 30/0
- STATED_CONDITIONS: stereoisomer not certain
Output spec: scalar in min, unitless text.

Please review the following examples before continuing.
- O=C(OC1CC2CCC(C1)[N+]21CCCC1)C(O)(c1ccccc1)c1ccccc1 (configuration not stated) [Trospium]: 14.2
- O=c1[nH]c2ccccc2n1CCCN1CCC(n2c(=O)[nH]c3cc(Cl)ccc32)CC1 [Domperidone]: 10.7
- O=C1Nc2ccc(Cl)cc2C(c2ccccc2)=NC1O (configuration not stated) [Oxazepam]: 13.2
- Cc1c(N)c(=O)n(-c2ccccc2)n1C [4-Aminoantipyrine]: 7.28
- Cc1cc(Cl)ccc1N=CN(C)C [Chlordimeform]: 8.37
- CCCCC(CC)COC(=O)C(C#N)=C(c1ccccc1)c1ccccc1 (configuration not stated) [Octocrylene]: 17.8
- CN1CCN(C)C1=O [1,3-Dimethyl-2-imidazolidinone]: 6.1
- CCOC(=O)CC(SP(=S)(OC)OC)C(=O)OCC (configuration not stated) [Malathion]: 14.3

Query: Requested read-out: LC retention time. Entry: CC1COC(=O)c2cc3c(cc21)C(C)(C)C(C)C3(C)C (configuration not stated) [Galaxolidone]
Response: 16.6

Query: Subsequent entry: CNC1(c2ccccc2Cl)CCCCC1=O (configuration not stated) [Ketamine]
Response: 8.96

Query: What do you have for CCCCCCCCCCCCCCCC(=O)NCCO [Palmitoylethanolamide] ?
Response: 18.4

Query: Same read-out for C#CC1(OC(C)=O)CCC2C3CCC4=CC(=O)CCC4C3CCC21C (configuration not stated) [Norethisterone acetate] ?
Response: 15.4

Query: Try CCCOP(=S)(OCCC)SCC(=O)N1CCCCC1C (configuration not stated) [Piperophos] next.
Response: 16.3

---

Recorded LC retention time values for a group of compounds are listed next.
- METHOD_NOTES: RP, Waters ACQUITY UPLC BEH C18, 100 × 1 mm, 1.7 µm, 50 °C, 0.3 mL/min, estimated dead time 0.17 min; A: water + 10 mM ammonium bicarbonate; B: 10% water + 90% methanol + 10 mM ammonium bicarbonate; gradient (min/%B) 0/0 15/100 21/100 22/0 30/0
- STATED_CONDITIONS: stereoisomer not certain
Numbers only; they are read as min.

- COC(C)C(O)(C(=O)OCC1=CC[N+]2([O-])CCC(O)C12)C(C)(C)O (stereo not drawn) [Europine N-oxide]: 7.37

Query: Entry CCCCOCCOCCOCc1cc2c(cc1CCC)OCO2 [Piperonyl butoxide] has what LC retention time?
Response: 15.3

Query: Same for CNC(=O)ON=CC(C)(C)SC
Response: 16.4

Query: Next up: Cc1nnc(-c2ccccc2)c(=O)n1N
Response: 9

Query: Moving on to CCc1cccc(C)c1N1C(=O)COCC1C (stereo not drawn)
Response: 12.9

Query: Param item: O=C1Nc2ccc(Cl)cc2C(c2ccccc2Cl)=NC1O (stereo not drawn)
Response: 13.5

---

Below, each entry is listed alongside its reported LC retention time.
- METHOD_NOTES: RP, Waters ACQUITY UPLC BEH C18, 100 × 1 mm, 1.7 µm, 50 °C, 0.3 mL/min, estimated dead time 0.17 min; A: water + 0.1% formic acid + 20 mM ammonium formate; B: methanol + 0.1% formic acid + 20 mM ammonium formate; gradient (min/%B) 0/0 15/100 21/100 22/0 30/0
- STATED_CONDITIONS: stereoisomer not certain
Please respond with the number in min and leave the unit unwritten.

Please review the following examples before continuing.
• CN1CCC(=C2c3ccccc3CC(=O)c3sccc32)CC1 = 10.4
• Clc1ccc(COC(Cn2ccnc2)c2ccc(Cl)cc2Cl)c(Cl)c1 (centres undefined) = 15.7
• CCOCN(C(=O)CS(=O)(=O)O)c1c(C)cccc1CC = 11.9
• NC(Cc1ccccc1)C(=O)N1CCCC1C(=O)O (centres undefined) = 8.7
• CC(C)(C)C(O)C(Cc1ccc(Cl)cc1)n1cncn1 (centres undefined) = 14.4

Query: If you can, please state the reported LC retention time value of C#CC1(O)CCC2C3CCC4=CC(=O)CCC4C3CCC21C (centres undefined) .
Response: 13.9

Query: Let us now turn to CCCCCCCCCCCOC(=O)c1ccccc1C(=O)OCCCCCCCCCCC [Diundecylphthalate]
Response: 21

Query: Same for CC(Cc1ccc(C(C)(C)C)cc1)CN1CCCCC1 (centres undefined)
Response: 13.8

Query: Can you check O=C(O)c1cccnc1Oc1cccc(C(F)(F)F)c1 [Diflufenican-metabolite] next?
Response: 13.2
